measurement protocol: Multiple-dose pharmacokinetics, plasma LNG concentrations on treatment day 55 (±1)
Format: in vivo, human
assay setup: female, human, plasma, po, 0.115 mg per day, 0.115 mg per day oral over 55 ± 1 consecutive days, entire treatment group; read-out: Cmax, ss, Mean
reported endpoint: Cmax (ng/mL)
Give the value, in units of ng/mL, as a plain number.

Task: Form field: reported Cmax of C#C[C@]1(O)CC[C@H]2[C@@H]3CCC4=CC(=O)CC[C@@H]4[C@H]3CC[C@@]21CC (racemic) [LNG, levonorgestrel]
Output: 1.79

====

measurement protocol: Multiple-dose pharmacokinetics, plasma LNG concentrations on treatment day 55 (±1)
Assay type: in vivo, human
assay setup: female, human, plasma, po, 0.115 mg per day, 0.115 mg per day oral over 55 ± 1 consecutive days, subgroup BMI < 30 kg/m2; read-out: AUC0-24, ss, Geometric mean
reported endpoint: AUC(0-t) (ng·h/mL)
Give the value, in units of ng·h/mL, as a plain number.

Task: Form field: reported AUC(0-t) of C#C[C@]1(O)CC[C@H]2[C@@H]3CCC4=CC(=O)CC[C@@H]4[C@H]3CC[C@@]21CC (racemic)
Output: 16.3
